Target Or System: Histone deacetylase 2 (Homo sapiens)
Sequence (Q92769 whole entry, the tested form may be a part): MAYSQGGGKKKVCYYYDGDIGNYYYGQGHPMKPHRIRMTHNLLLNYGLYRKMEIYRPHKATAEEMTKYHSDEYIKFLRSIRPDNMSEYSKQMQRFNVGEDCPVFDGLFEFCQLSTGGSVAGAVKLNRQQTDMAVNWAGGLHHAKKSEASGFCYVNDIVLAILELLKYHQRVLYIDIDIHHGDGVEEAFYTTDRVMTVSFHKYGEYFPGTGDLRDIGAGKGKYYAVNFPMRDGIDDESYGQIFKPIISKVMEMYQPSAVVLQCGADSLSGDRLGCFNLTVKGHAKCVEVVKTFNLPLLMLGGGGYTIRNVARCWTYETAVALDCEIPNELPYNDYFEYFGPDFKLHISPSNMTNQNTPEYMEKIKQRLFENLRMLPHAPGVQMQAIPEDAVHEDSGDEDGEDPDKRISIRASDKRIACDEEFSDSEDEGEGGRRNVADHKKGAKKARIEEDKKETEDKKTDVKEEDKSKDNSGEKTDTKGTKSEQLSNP
Experiment Description: Inhibition of recombinant human C-terminal GST-tagged HDAC2 (1 to 488 residues) expressed in baculovirus infected Sf21 insect cells using RHK-K(Ac)-AMC as substrate measured after 30 mins by fluorescence assay
Property Measured: IC50 (µM)
A number alone suffices; assume µM.

Q: Give the reported value of IC50 for this record: `Cl.NCCCCNCCCCNCCCN1C(=O)c2ccc3c4c(ccc(c24)C1=O)C(=O)N(CCCCCC(=O)NO)C3=O`
Result: 10.8

----------
Target Or System: Histone deacetylase 1 (Homo sapiens, UniProt Q13547)
Sequence (Q13547 whole entry, the tested form may be a part): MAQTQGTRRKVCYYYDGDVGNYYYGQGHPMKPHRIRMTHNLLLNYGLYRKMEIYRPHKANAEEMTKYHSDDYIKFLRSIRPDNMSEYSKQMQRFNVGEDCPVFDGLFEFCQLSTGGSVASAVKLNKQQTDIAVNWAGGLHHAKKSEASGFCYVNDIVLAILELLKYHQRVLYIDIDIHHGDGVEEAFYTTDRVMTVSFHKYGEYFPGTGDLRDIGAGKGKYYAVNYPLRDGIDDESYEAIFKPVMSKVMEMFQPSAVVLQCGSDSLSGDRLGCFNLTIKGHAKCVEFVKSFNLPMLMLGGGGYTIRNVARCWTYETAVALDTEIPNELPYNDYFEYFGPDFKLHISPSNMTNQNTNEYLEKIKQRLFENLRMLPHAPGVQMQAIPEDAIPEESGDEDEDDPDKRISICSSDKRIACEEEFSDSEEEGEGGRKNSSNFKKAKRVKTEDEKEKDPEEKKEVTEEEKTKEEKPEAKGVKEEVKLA
Experiment Description: Inhibition of recombinant human C-terminal FLAG-His tagged HDAC1 (1 to 482 residues) expressed in Sf21 insect cells using RHK-K(Ac)-AMC as substrate by fluorescence assay
Property Measured: IC50 (µM)
Answer with a number only, understood to be in µM.

Q: Please give measured IC50 of the following entry: `Cl.NCCCCNCCCCNCCCN1C(=O)c2ccc3c4c(ccc(c24)C1=O)C(=O)N(CCCCCC(=O)NO)C3=O`
Result: 4.12

----------
Target Or System: Histone deacetylase 4 (Homo sapiens)
Sequence (P56524 whole entry, the tested form may be a part): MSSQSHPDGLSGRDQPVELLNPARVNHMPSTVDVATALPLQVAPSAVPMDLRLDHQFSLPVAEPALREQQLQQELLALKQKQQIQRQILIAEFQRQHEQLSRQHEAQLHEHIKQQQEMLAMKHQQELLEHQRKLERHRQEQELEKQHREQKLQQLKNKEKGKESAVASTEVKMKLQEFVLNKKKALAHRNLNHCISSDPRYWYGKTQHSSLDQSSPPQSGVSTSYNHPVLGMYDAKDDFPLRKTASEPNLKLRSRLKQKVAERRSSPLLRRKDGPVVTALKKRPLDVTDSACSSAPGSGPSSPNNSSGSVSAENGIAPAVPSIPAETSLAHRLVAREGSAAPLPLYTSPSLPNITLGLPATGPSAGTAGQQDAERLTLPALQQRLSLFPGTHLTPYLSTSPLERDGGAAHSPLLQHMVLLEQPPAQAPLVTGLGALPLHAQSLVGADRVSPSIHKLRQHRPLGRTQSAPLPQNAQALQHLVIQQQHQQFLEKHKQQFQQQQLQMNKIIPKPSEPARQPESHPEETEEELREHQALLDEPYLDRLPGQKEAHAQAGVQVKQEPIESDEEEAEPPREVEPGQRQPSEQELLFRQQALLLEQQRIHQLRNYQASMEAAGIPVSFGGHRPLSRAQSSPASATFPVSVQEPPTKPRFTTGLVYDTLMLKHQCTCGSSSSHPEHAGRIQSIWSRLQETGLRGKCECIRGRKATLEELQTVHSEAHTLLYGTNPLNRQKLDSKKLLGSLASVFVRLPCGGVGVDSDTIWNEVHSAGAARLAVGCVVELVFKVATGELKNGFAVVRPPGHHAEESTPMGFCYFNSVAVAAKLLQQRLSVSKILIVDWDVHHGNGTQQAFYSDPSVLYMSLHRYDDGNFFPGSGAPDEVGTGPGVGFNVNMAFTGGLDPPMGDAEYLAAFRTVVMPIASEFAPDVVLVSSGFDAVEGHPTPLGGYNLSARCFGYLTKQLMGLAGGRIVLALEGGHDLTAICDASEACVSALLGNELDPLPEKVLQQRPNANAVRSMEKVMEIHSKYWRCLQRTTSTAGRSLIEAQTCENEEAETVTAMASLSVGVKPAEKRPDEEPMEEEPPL
Experiment Description: Inhibition of recombinant human N-terminal GST-tagged/C-terminal His-tagged HDAC4 (627 to 1084 residues) expressed in baculovirus infected Sf21 insect cells using (Boc-Lys(trifluoroacetyl)-AMC) as substrate by fluorescence assay
Property Measured: pIC50
In simple prose, pIC50 is minus the logarithm base ten of a concentration in moles per litre.

Q: Name the recorded pIC50 of the item `Cl.NCCCCNCCCCNCCCN1C(=O)c2ccc3c4c(ccc(c24)C1=O)C(=O)N(CCCCCC(=O)NO)C3=O` in your answer.
Result: 3.93

----------
Test system: dsDNA
Experiment Description: Stabilization of 5'6FAM/3'Dabcyl-labelled double stranded DNA (unknown origin) assessed as change in melting temperature at 0.75 uM by fluorescence assay
Type: nucleic-acid assay
Parameter: ΔTm. Scope: all listed entries.
Give the value in °C but do not write °C after it.

Check out these entries, answers already filled in.
{"Smiles Record": "Cl.NCCCNCCCN1C(=O)c2ccc3c4c(ccc(c24)C1=O)C(=O)N(CCCCCC(=O)NO)C3=O", "Target Or System": "dsDNA", "ΔTm (°C)": 1}
{"Smiles Record": "CN(C)c1ccc(Nc2c3ccc(NC(=O)CCN4CCCC4)cc3nc3cc(NC(=O)CCN4CCCC4)ccc23)cc1", "Target Or System": "dsDNA", "ΔTm (°C)": 0.5}
{"Smiles Record": "Cl.NCCCNCCNCCCN1C(=O)c2ccc3c4c(ccc(c24)C1=O)C(=O)N(CCCCCC(=O)NO)C3=O", "Target Or System": "dsDNA", "ΔTm (°C)": 2}

Proceeding to the next compound to report its ΔTm.
Q: Provide ΔTm value for the following compound: `O=C(CCCCCN1C(=O)c2cccc3cccc(c23)C1=O)NO`
Result: 0.1

----------
In this section, each of the compounds is paired with its reported ΔTm.
System: dsDNA
Experiment Description: Stabilization of 5'6FAM/3'Dabcyl-labelled double stranded DNA (unknown origin) assessed as change in melting temperature at 2.5 uM by fluorescence assay
Format: nucleic-acid assay
Give your result in °C as a bare value.

Worked examples follow.
{"Smiles Record": "O=C(CCCCCN1C(=O)c2cccc3cccc(c23)C1=O)NO", "Observed Value": 0.1}
{"Smiles Record": "CN(C)c1ccc(Nc2c3ccc(NC(=O)CCN4CCCC4)cc3nc3cc(NC(=O)CCN4CCCC4)ccc23)cc1", "Observed Value": 5.3}
{"Smiles Record": "Cl.NCCCNCCCCNCCCN1C(=O)c2ccc3c4c(ccc(c24)C1=O)C(=O)N(CCCCCC(=O)NO)C3=O", "Observed Value": 8.1}

Consider the additional compound presented here.
Q: Indicate its recorded ΔTm; the compound in question is `Cl.NCCCNCCNCCCN1C(=O)c2ccc3c4c(ccc(c24)C1=O)C(=O)N(CCCCCC(=O)NO)C3=O`
Result: 3.4
